System: HCC-2998 colon
Experiment: NCI-60 one-dose screen, 48 h
Details: 10 µM unless noted
About 83,000 compounds went through this panel and 20% of them were active in at least one assay; those are over-represented in the sample as a whole. Calls of active or inactive are those of the source. Rule for the calls: active = growth percent below 10; inactive = the rest.
Outcome codes: active, inactive

[[record]]
compound = "OC(CNC1CCCCC1)Cn1c2ccc(I)cc2c2cc(I)ccc21 (stereo not given)"
answer_label = "inactive"

[[record]]
compound = "CCCN1CCN(c2ccc3nc(-c4ccc5nc(-c6cc(OC)ccc6OC)[nH]c5c4)[nH]c3c2)CC1"
answer_label = "inactive"

[[record]]
compound = "CCOC(=O)C1=C(C)c2ccc(OC)c(OC)c2C1"
answer_label = "inactive"

[[record]]
compound = "CCOC(=O)c1cnc2c(C)cccc2c1Nc1ccc(C(C)=O)cc1"
answer_label = "active"

[[record]]
compound = "CCOc1ccccc1CN1CCc2nc3cc(C(C)(C)C)[nH]n3c(=O)c2C1"
answer_label = "inactive"

[[record]]
compound = "COc1ccc(/C=C/C(=O)c2ccc3cc(OC)c(OC)cc3c2)cc1OC"
answer_label = "inactive"

[[record]]
compound = "Cc1ccc(Cc2cnc(NC(=O)CN3C(=O)/C(=C\\c4ccccc4)SC3=S)s2)cc1"
answer_label = "inactive"

[[record]]
compound = "COc1cccc(-c2nn(C)c3sc(C(=O)NCCN4CCN(c5ccccc5F)CC4)cc23)c1"
answer_label = "active"

[[record]]
compound = "O=c1oc2ccc(-c3ccc(F)cc3F)cc2c(=O)n1-c1cccc(C(F)(F)F)c1"
answer_label = "inactive"

[[record]]
compound = "O=[N+]([O-])c1cc2c(ccc3occc32)o1"
answer_label = "inactive"


* * *

System: SR leukemia
Assay: NCI-60 one-dose screen, 48 h
Conditions: 10 µM unless noted
Protocol: Growth inhibition of the SR human tumor cell line is measured as a screen for anti-cancer activity. Cells are grown in 96 well plates and exposed to the test compound for 48 hours. Compounds are tested at a single concentration, which is 10^-5 M for most compounds. The reported endpoint is percent growth (GI% or GIPRCNT), where numbers from 0 - 100% represent growth inhibition, and numbers from -100% - 0 represent cell death. For example, a value of 40 represents 60% growth inhibition. […]
This is part of a sample that, as a whole, favours compounds with a hit. Of some 83,000 tested, about 20% had one in any assay. The source made the active and inactive calls. How the source made its calls: active means growth percent below 10; inactive means the rest.
Outcome codes: active, inactive

[[record]]
molecule = "O=C(c1nc2ccccc2[nH]1)C1[C@@H](c2cccc(O)c2)C2CC3CCCCC3N2[C@@]12C(=O)Nc1cc(Cl)ccc12 (some centres not stated)"
assayed_target = "SR leukemia"
answer_label = "active"

[[record]]
molecule = "COc1ccccc1C(=O)/C=C/c1ccccc1"
assayed_target = "SR leukemia"
answer_label = "inactive"

[[record]]
molecule = "COC(=O)/C(=C\\c1c(C)[nH]c2ccccc12)S(=O)(=O)c1ccccc1"
assayed_target = "SR leukemia"
answer_label = "inactive"

[[record]]
molecule = "c1ccc(CNc2nc(Nc3ccccc3)nc3ccccc23)cc1"
assayed_target = "SR leukemia"
answer_label = "inactive"

[[record]]
molecule = "O=C1/C(=C\\c2ccc[nH]2)c2ccccc2N1c1ccccc1"
assayed_target = "SR leukemia"
answer_label = "inactive"

[[record]]
molecule = "Clc1ccc(-c2nnc(COc3ccc(C4=NNC(c5ccco5)C4)cc3)o2)cc1 (configuration not stated)"
assayed_target = "SR leukemia"
answer_label = "inactive"

[[record]]
molecule = "COc1cc2cc3c(=O)n4c(cc5cc(OC)ncc54)c(=O)n3c2cn1"
assayed_target = "SR leukemia"
answer_label = "inactive"

[[record]]
molecule = "CCCSC1=NC2C(N(CC)C(=O)N2CC)N1/N=C/C=C/c1ccccc1[N+](=O)[O-] (configuration not stated)"
assayed_target = "SR leukemia"
answer_label = "active"

[[record]]
molecule = "O=C(Cn1cc(COc2ncnc3c2cnn3-c2ccccc2)nn1)Nc1ccccn1"
assayed_target = "SR leukemia"
answer_label = "inactive"

[[record]]
molecule = "COc1ccccc1C(=O)O/N=C(\\N)Cc1cccc2ccccc12"
assayed_target = "SR leukemia"
answer_label = "inactive"

[[record]]
molecule = "CCCCCCn1c(=N)n(CC(O)COc2cccc(C)c2)c2ccccc21 (configuration not stated)"
assayed_target = "SR leukemia"
answer_label = "active"

[[record]]
molecule = "CNC(=O)c1cc(Oc2ccc(CC(=O)Nc3cc(C(C)(C)C)cn3C)cc2)ccn1"
assayed_target = "SR leukemia"
answer_label = "inactive"

[[record]]
molecule = "Nc1nonc1-n1nncc1-c1cccnc1"
assayed_target = "SR leukemia"
answer_label = "inactive"

[[record]]
molecule = "COC(=O)[C@H](NC(=O)C1(C)CCC[C@]2(C)[C@H]3C[C@H]4C(C(C)C)=C[C@]3(CC[C@@H]12)[C@@H]1C(=O)CCC(=O)[C@@H]14)C(C)C (some centres not stated)"
assayed_target = "SR leukemia"
answer_label = "inactive"

[[record]]
molecule = "CCCc1c(C)c2sc(=O)[nH]c2[nH]c1=O"
assayed_target = "SR leukemia"
answer_label = "inactive"

[[record]]
molecule = "COc1cc2nc(-c3cccc4cccnc34)nc(NC3CCN(Cc4ccccc4)CC3)c2cc1OC"
assayed_target = "SR leukemia"
answer_label = "active"

[[record]]
molecule = "CCN(CCO)CCNc1ccc(C)c2sc3cc(Cl)ccc3c(=O)c12"
assayed_target = "SR leukemia"
answer_label = "active"

[[record]]
molecule = "COc1ccc(/C=C/C(=O)c2ccc3cc(OC)c(OC)cc3c2)cc1OC"
assayed_target = "SR leukemia"
answer_label = "active"

[[record]]
molecule = "CN(O)c1nc(N(C)O)nc(N2CCOCC2)n1"
assayed_target = "SR leukemia"
answer_label = "inactive"

[[record]]
molecule = "CC(=O)O[C@@H]1/C=C/C(=O)N[C@@H](C)CCC/C=C/[C@@H]2CCC[C@H]21"
assayed_target = "SR leukemia"
answer_label = "inactive"

[[record]]
molecule = "CCC1=C[C@]2(C3CC(=O)N(c4ccccc4)C3=O)CC(C(C)(C)C)C[C@@H]2[C@@H]2C(=O)N(c3ccccc3)C(=O)[C@H]12 (some centres not stated)"
assayed_target = "SR leukemia"
answer_label = "inactive"

[[record]]
molecule = "O=C(/C=C/c1ccc(F)cc1)c1ccc(Nc2nc(NCCO)nc(Nc3ccc(Cl)cc3)n2)cc1"
assayed_target = "SR leukemia"
answer_label = "inactive"

[[record]]
molecule = "CCOC(=O)c1c(Cl)c2c(n1Cc1ccccc1)-c1oncc1CCC2"
assayed_target = "SR leukemia"
answer_label = "active"

[[record]]
molecule = "COc1ccccc1N1CCN(C(CNS(=O)(=O)c2ccc(Cl)cc2)c2cccnc2)CC1 (configuration not stated)"
assayed_target = "SR leukemia"
answer_label = "inactive"

[[record]]
molecule = "CCCCC1COc2cccc3c2N1C=C/C3=C\\C(=O)N(C)c1ccccc1 (configuration not stated)"
assayed_target = "SR leukemia"
answer_label = "inactive"

[[record]]
molecule = "N#C/C(=C1\\SC(=O)CN1c1ccccc1)c1nc2ccccc2s1"
assayed_target = "SR leukemia"
answer_label = "inactive"

[[record]]
molecule = "O=C1Nc2ccccc2/C1=C/c1cccs1"
assayed_target = "SR leukemia"
answer_label = "inactive"

[[record]]
molecule = "COC(=O)C1(C)COP(=O)(Nc2ccc(OC)cc2)OC1 (configuration not stated)"
assayed_target = "SR leukemia"
answer_label = "inactive"

[[record]]
molecule = "CCCCC1CCc2cccc3c(SCC(=O)N(C)c4ccc(Cl)cc4)cc[n+]1c23 (configuration not stated)"
assayed_target = "SR leukemia"
answer_label = "inactive"

[[record]]
molecule = "O=C(N=Nc1c(O)[nH]c2ccccc12)c1oc2ccccc2c1CN1CCN(c2ccccc2)CC1"
assayed_target = "SR leukemia"
answer_label = "active"

[[record]]
molecule = "O=C(N/N=C/c1ccccc1Cl)C(=O)Nc1cccc(C(F)(F)F)c1"
assayed_target = "SR leukemia"
answer_label = "inactive"

[[record]]
molecule = "NC(CCl)=NCCC[C@H](N)C(=O)O"
assayed_target = "SR leukemia"
answer_label = "inactive"

[[record]]
molecule = "O=C(Nc1ncc(Cc2cccc(C(F)(F)F)c2)s1)C1COc2ccccc2O1 (configuration not stated)"
assayed_target = "SR leukemia"
answer_label = "inactive"

[[record]]
molecule = "COc1ccc2sc3c(NCCCN)nc4ccccc4c3c(=O)c2c1"
assayed_target = "SR leukemia"
answer_label = "active"

[[record]]
molecule = "CNCCNc1nc2ccccc2c2c(=O)c3cccc(OC)c3sc12"
assayed_target = "SR leukemia"
answer_label = "active"

[[record]]
molecule = "CC(=O)n1cc(-c2c[nH]c3ccccc23)c(-c2ccc(Cl)cc2)n1"
assayed_target = "SR leukemia"
answer_label = "inactive"

[[record]]
molecule = "CCOC(=O)C1=CN(C)C=C(C(=O)OCC)C1c1cc(Br)c(OCC)c(OC)c1"
assayed_target = "SR leukemia"
answer_label = "active"

[[record]]
molecule = "Cc1cccc2c(=O)c3c(sc12)c(NCCCNCCO)nc1ccccc13"
assayed_target = "SR leukemia"
answer_label = "active"

[[record]]
molecule = "Cc1ccc2sc3c(NCCCNCCO)nc4ccccc4c3c(=O)c2c1"
assayed_target = "SR leukemia"
answer_label = "active"

[[record]]
molecule = "O=C1C(=O)c2c(ccc3ccccc23)-c2ccccc21"
assayed_target = "SR leukemia"
answer_label = "active"

[[record]]
molecule = "O=c1c(-c2nc3ccccc3[nH]2)cc2ccccc2n1Cc1cn(Cc2ccccc2Cl)nn1"
assayed_target = "SR leukemia"
answer_label = "inactive"

[[record]]
molecule = "O=C1/C(=C/c2ccc(O)cc2)COc2ccc(O)c(O)c21"
assayed_target = "SR leukemia"
answer_label = "inactive"

